These data points were gathered from PubChem BioAssay (NCI).

Test system: DU-145 prostate
Test: NCI-60 one-dose screen, 48 h (100 = growth as untreated, 0 = no growth, -100 = all killed)
Conditions: 10 µM unless noted
Compounds without any hit were thinned out: in the full panel of roughly 83,000, 20% have a hit.
Measurement Kind: growth (%)
Give bare numbers, in %.

Some molecules with recorded growth:
Molecule: CC(/C=N/N=C(N)N)=N\N=C(N)N
Measurement Kind: growth
Recorded Number: 65.5
--
Molecule: CC[CH2][Pb]([CH2]CC)([CH2]CC)[O]C(=O)C(F)(F)F
Measurement Kind: growth
Recorded Number: -100

// for each molecule in input: emit growth
1. CCCCNCCc1ccccn1
2. Cc1nnc([S-])s1.[Au+].c1ccc([PH+](c2ccccc2)c2ccccc2)cc1
3. CC1(C)N=C(N)N=C(N)N1c1ccc(CNC(=O)Nc2ccc(S(=O)(=O)F)c(Cl)c2)c(Cl)c1
4. CC1(C)N=C(N)N=C(N)N1c1ccc(OCCCCNC(=O)c2ccc(S(=O)(=O)F)cc2)c(Cl)c1
5. CCC1CN1P(=O)(OCCOC)N1CC1CC (stereo not given)
6. CCCCN(CCCC)CC(O)c1ccccc1 (stereo not given)
7. CC(C)(C)N(Cc1ccccc1)N=O

1. 113
2. 18.6
3. 31.7
4. 55
5. 110
6. 113
7. 107

For every item in the list below, what is its measured growth?
1. CCOc1cc(/C=N\Nc2nnc(C)n2N)c(C)cc1N(CCCl)CCCl
2. O=S(=O)(c1ccc(Cl)cc1)C(Cl)(Cl)Cl
3. ClCCN(CCCl)c1ccc(C=NCCc2c[nH]c3ccccc23)cc1
4. O=C(CC1(O)C(=O)Nc2ccc(F)cc21)c1ccc(C(=O)NCC2CCC3(CC2)OOC2(CCCCC2)OO3)cc1 (stereo not given)
5. O=[N+]([O-])c1cccc([As]=[As]c2cccc([N+](=O)[O-])c2)c1 (stereo not given)
6. ClCCN(CCCl)c1nc(Cl)c(C2CC(c3ccccc3)=NN2c2ccccc2)s1 (stereo not given)

1: 27.8; 2: 49.4; 3: 56.2; 4: 3.83; 5: -100; 6: 99.7

Would you mind giving growth for every molecule in the list below?
1. O=CN1N=C(c2ccccc2)CC1c1sc(N(CCCl)CCCl)nc1Cl (stereo not given)
2. COc1ccc(-c2ccc(OC)c(OC)c2OC)cc1
3. COc1c(O)c2c3c(c1OC)-c1ccccc1CC3N(C)CC2 (stereo not given)
4. O=C(/C=C/c1ccccc1)N[C@@H](CO)Cc1cnc[nH]1
5. O=S(=O)(Cl)c1ccccc1 (tested in a mixture with another compound)

1: 111; 2: 13.8; 3: 116; 4: 114; 5: 109
